- Test system: RTgill-W1 cells
- Assay type: cell-based, rainbow trout, Oncorhynchus mykiss
Quantity name: concentration at which the chemical is detected, relative to MEG and HLC

>>> observed("CN1CCCC1c1cccnc1 (stereo not shown)")
"above the HLC"
>>> observed("O=C([O-])CF.[Na+] [fluoroacetate, sodium fluoroacetate]")
"above the HLC"
>>> observed("Oc1ccccc1")
"above the HLC"

---

- Test system: RTgill-W1 cells
- Type: cell-based, rainbow trout, Oncorhynchus mykiss
Quantity name: change in impedance compared to controls

>>> observed("COP(=S)(OC)Oc1ccc([N+](=O)[O-])cc1")
"significant decrease"
>>> observed("Cc1ccccc1")
"significant decrease"
>>> observed("[N-]=[N+]=[N-] [azide]")
"significant decrease"
